Origin of the recorded values: ChEMBL document CHEMBL1811881

Molecular target: 17-beta-hydroxysteroid dehydrogenase type 3 (Homo sapiens) (UniProt P37058)
Sequence (P37058 whole entry): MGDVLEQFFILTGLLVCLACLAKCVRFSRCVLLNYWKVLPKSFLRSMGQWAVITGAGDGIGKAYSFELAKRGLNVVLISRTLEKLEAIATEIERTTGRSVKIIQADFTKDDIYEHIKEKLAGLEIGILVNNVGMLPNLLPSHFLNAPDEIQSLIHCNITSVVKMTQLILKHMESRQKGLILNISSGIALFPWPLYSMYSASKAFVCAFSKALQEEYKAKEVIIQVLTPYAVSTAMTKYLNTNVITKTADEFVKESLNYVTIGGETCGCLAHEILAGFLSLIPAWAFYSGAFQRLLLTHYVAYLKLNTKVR
Assay: Inhibition of 17Beta-HSD3 expressed in homogenized HEK293 cells assessed as transformation of [14C]-4-androstene-3,17-dione into [14C]-testosterone in presence of NADPH at 1 uM
Assay type: cell-based
READOUT KIND: inhibition (%)

INSERT INTO assay_data (smiles_repr, target_desc, readout_kind, measured_result) VALUES
  ('C[C@]12CC[C@](O)(CN3CCN(c4ccccc4)CC3)C[C@@H]1CC[C@@H]1[C@@H]2CC[C@]2(C)C(=O)CC[C@@H]12', '17-beta-hydroxysteroid dehydrogenase type 3 (Homo sapiens) (UniProt P37058)', 'inhibition', 89),
  ('CCN(CC)C[C@@]1(O)CC[C@@]2(C)[C@@H](CC[C@@H]3[C@@H]2CC[C@]2(C)C(=O)CC[C@@H]32)C1', '17-beta-hydroxysteroid dehydrogenase type 3 (Homo sapiens) (UniProt P37058)', 'inhibition', 60),
  ('Cc1ccc(CN2C[C@]3(CC[C@@]4(C)[C@@H](CC[C@@H]5[C@@H]4CC[C@]4(C)C(=O)C(C)(C)C[C@@H]54)C3)OC2=O)cc1', '17-beta-hydroxysteroid dehydrogenase type 3 (Homo sapiens) (UniProt P37058)', 'inhibition', 74),
  ('CCCN(CCN1C[C@]2(CC[C@@]3(C)[C@@H](CC[C@@H]4[C@@H]3CC[C@]3(C)C(=O)CC[C@@H]43)C2)OC1=O)C(=O)CC', '17-beta-hydroxysteroid dehydrogenase type 3 (Homo sapiens) (UniProt P37058)', 'inhibition', 80),
  ('Cc1cccc(S(=O)(=O)CCN2C[C@]3(CC[C@@]4(C)[C@@H](CC[C@@H]5[C@@H]4CC[C@]4(C)C(=O)CC[C@@H]54)C3)OC2=O)c1', '17-beta-hydroxysteroid dehydrogenase type 3 (Homo sapiens) (UniProt P37058)', 'inhibition', 93),
  ('CCN(CCN1C[C@]2(CC[C@@]3(C)[C@@H](CC[C@@H]4[C@@H]3CC[C@]3(C)C(=O)CC[C@@H]43)C2)OC1=O)C1CCCCC1', '17-beta-hydroxysteroid dehydrogenase type 3 (Homo sapiens) (UniProt P37058)', 'inhibition', 72);
